The reported numbers originate from paper PMC12631574.

Target: tissue transglutaminase (TG2), C-terminal His-tag TG2 (Homo sapiens, UniProt P21980)
Construct: host or cells: Novagen Rosetta 2 (DE3) E. coli
Sequence (P21980 whole entry): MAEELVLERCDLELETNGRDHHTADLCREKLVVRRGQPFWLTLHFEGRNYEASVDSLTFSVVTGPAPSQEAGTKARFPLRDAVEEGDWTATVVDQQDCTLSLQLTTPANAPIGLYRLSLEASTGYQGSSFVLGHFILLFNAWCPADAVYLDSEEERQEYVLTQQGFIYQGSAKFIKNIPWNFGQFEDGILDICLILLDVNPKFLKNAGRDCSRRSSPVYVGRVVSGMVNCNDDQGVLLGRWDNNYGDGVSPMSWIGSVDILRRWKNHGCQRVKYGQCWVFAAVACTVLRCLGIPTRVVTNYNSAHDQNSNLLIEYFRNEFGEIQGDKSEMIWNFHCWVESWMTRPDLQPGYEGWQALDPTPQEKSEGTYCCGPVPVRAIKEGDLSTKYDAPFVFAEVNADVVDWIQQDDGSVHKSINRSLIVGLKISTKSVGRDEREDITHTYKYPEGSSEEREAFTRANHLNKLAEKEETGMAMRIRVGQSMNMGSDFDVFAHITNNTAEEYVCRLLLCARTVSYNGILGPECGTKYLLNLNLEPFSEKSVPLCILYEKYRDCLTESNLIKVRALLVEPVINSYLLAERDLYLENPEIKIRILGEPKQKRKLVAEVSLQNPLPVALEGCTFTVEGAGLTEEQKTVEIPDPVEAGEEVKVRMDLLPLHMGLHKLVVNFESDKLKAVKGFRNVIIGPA
Experiment: continuous AL5 hydrolysis assay of irreversible TG2 inhibition (kobs vs [I]/α)
Assay type: biochemical
Conditions: supplement, kinetics data and fitting
For each of the compounds below, state its kinact/KI.

                                   compound  value_type                     result
0  C=CC(=O)NCC(=O)N1CCN(C(=O)c2ccc(Nc3ccccc3)cc2)CC1 [Compound 22i]   kinact/KI  16.5 ± 9.4 × 103 M-1min-1

Field: kinact/KI. Fill in for each record below.
1. C=CC(=O)NCC(=O)N1CCN(C(=O)c2cccc(Nc3ccccc3)c2)CC1 [Compound 22f]
2. C=CC(=O)NCC(=O)N1CCN(C(=O)C23CC4CC(C2)CC(c2ccccc2)(C4)C3)CC1 [Compound 25d]
3. C=CC(=O)NCC(=O)N1CCN(C(=O)C23CC4CC(CC(Cl)(C4)C2)C3)CC1 [Compound 25b]

Response given:
1: 31.2 ± 10.0 × 103 M-1min-1; 2: 972 ± 103 × 103 M-1min-1; 3: 941 ± 101 × 103 M-1min-1
